tested on: K-562 leukemia; assay: NCI-60 one-dose screen, 48 h (100 = growth as untreated, 0 = no growth, -100 = all killed); settings: 10 µM unless noted
About 83,000 compounds went through this panel and 20% of them were active in at least one assay; those are over-represented in the sample as a whole.
Exam item: assign Met to entries whose growth is below 20% and Not met to entries at or above 20%. Note that a value of exactly 20% receives Not met.

COMPOUND	TARGET_SYSTEM	CLASS_NAME
CCN1C(=O)N(CC)C2NNC(Sc3c(C(=O)O)c4ccccc4n(CCC(C)C)c3=O)=NC21 (stereo not drawn)	K-562 leukemia	Met
Oc1ccc(F)c(Nc2nc(SCCN3CCOCC3)nc3c2cnn3CC(Cl)c2ccc(Br)cc2)c1 (stereo not drawn)	K-562 leukemia	Met
COc1ccc(NC(=O)N/N=C/c2c[nH]c3ccccc23)cc1	K-562 leukemia	Met
Cc1nn(-c2ccccc2)c2nc(C)n(C(=O)N/N=C/c3ccccc3)c(=O)c12	K-562 leukemia	Not met
CN1CCN(C(=O)CCN(C(=O)Oc2cc3c(c4ccccc24)[C@H](CCl)CN3C(=O)c2cc3cc(OCCCN4CCC4)ccc3[nH]2)[C@H]2CCSSC2)CC1	K-562 leukemia	Met
COC(=O)CSC1=C(C)C(=O)C(OC)=C(OC)C1=O	K-562 leukemia	Met
COc1cc(/C=C/C(=O)c2ccc(S(=O)(=O)NCCNc3nc(N(C)C)nc(N4CCOCC4)n3)cc2)cc(OC)c1OC	K-562 leukemia	Met
COc1nc(N)ncc1-c1ccc2ncnc(N3CCc4cc(F)c(Cl)cc43)c2c1	K-562 leukemia	Not met
COc1ccc2nc(NC(=O)c3ccc(N(C)C)cc3)sc2c1	K-562 leukemia	Not met
Nc1cc(-c2c[nH]c3ccc(Br)cc23)nc2cc(-c3c[nH]c4ccccc34)nn12	K-562 leukemia	Met
CC(C)(C)OC(=O)N1C/C(=C\c2ccc(F)cc2)C(=O)/C(=C/c2ccc(F)cc2)C1	K-562 leukemia	Met
CC1CCc2c(sc3nc(SCC(=O)c4cccc([N+](=O)[O-])c4)n(-c4ccccc4)c(=O)c23)C1 (stereo not drawn)	K-562 leukemia	Not met
O=C(c1ccc(O)cc1)C1[C@H](c2ccc(Cl)cc2)[C@@H](c2ccccc2)NC12C(=O)Nc1ccc(Br)cc12 (stereo partly drawn)	K-562 leukemia	Met
Cc1ccc(Cl)cc1NC(=O)N/C(N)=N/c1nc2ccccc2s1	K-562 leukemia	Met
CC(C)(C)OC(=O)N1CCC2(CC1)Oc1ccccc1[C@H]1CC(c3ccc(Br)cc3)=NN12	K-562 leukemia	Not met
COc1ccc2[nH]c(=O)c(CSc3ccccc3Nc3nccc(-c4ccc(Cl)cc4)n3)cc2c1	K-562 leukemia	Not met
C[C@@H](Nc1c(C#N)cnc2ccc(-c3cnc4[nH]ncc4c3)cc12)c1ccccc1	K-562 leukemia	Not met
O=C(CSc1nnc(-c2ccc(-c3nc4ccc(Cl)cc4[nH]3)cc2)o1)Nc1ccc(Cl)cc1	K-562 leukemia	Met
O=C(N/N=C/c1ccsc1)c1[nH]c2ccc(Br)cc2c1-c1ccccc1	K-562 leukemia	Met
COC(=O)c1c(C(=O)OC)c2c3ccccc3c3ccccc3n2c1C(=O)C(C)(C)C	K-562 leukemia	Not met
CS(=O)(=O)c1ccc(-n2nc(C(=O)NCc3ccccc3)cc2-c2ccc(Cl)cc2)cc1	K-562 leukemia	Not met
COc1ccc(-c2cc(C(=O)N=Nc3c(O)[nH]c4ccc(Cl)cc34)c3ccccc3n2)cc1	K-562 leukemia	Not met
NC(=O)c1ccc(-c2ccc3ncnc(N4CCc5cc(F)c(Cl)cc54)c3c2)cn1	K-562 leukemia	Not met
COc1cc(-c2ccc3ncnc(N4CCc5ccc(Cl)cc54)c3c2)cnc1Cl	K-562 leukemia	Not met
C[C@@H]1[C@H]2C[C@@H](C[C@H]1NCc1nc3ccccc3n1C1CCCCCC1)C2(C)C	K-562 leukemia	Not met
COc1ccc(NC(=O)NN2C(=O)c3ccccc3N(C)C2c2ccc(OC)cc2)cc1 (stereo not drawn)	K-562 leukemia	Not met
Cc1ccc(C2CC(c3ccc(NC(=O)Nc4ccccc4)cc3)=NN2c2ccc(S(C)(=O)=O)cc2)cc1 (stereo not drawn)	K-562 leukemia	Met
O=C(CSc1nc2sc3c(c2c(=O)n1-c1ccc(Cl)cc1)CCCC3)N/N=C/C=C/c1ccccc1	K-562 leukemia	Met
CCC(=O)c1c2c(c3ccc4c5ccccc5ccc4n13)C(=O)c1ccccc1C2=O	K-562 leukemia	Not met
O=C(Cn1c(-c2ccccc2)nc2ccccc21)N=Nc1c(O)[nH]c2ccc(Br)cc12	K-562 leukemia	Met
COc1ccc2oc(=O)c(-c3csc(N/N=C(\C)c4cc(OC)c(OC)c(OC)c4)n3)cc2c1	K-562 leukemia	Not met
Cc1ccc(Cl)cc1NC(=O)Nc1nc2ccc([N+](=O)[O-])cc2s1	K-562 leukemia	Met
COc1ccc2[nH]cc(-c3cc(N)n4nc(-c5c[nH]c6ccccc56)cc4n3)c2c1	K-562 leukemia	Met
OCCn1cc(-c2nc3ccc4[nH]ncc4c3c3c2CCCC3)cn1	K-562 leukemia	Not met
FC(F)(F)c1cc2c(Cl)ncnc2n1CCN1CCCCC1	K-562 leukemia	Met
O=C1/C(=C/c2cccc3c2OCO3)Cc2c(F)cc(Br)cc21	K-562 leukemia	Not met
NNc1ncnc2sc3c(c12)CCN(Cc1ccccc1)C3	K-562 leukemia	Met
O=C(Nc1ccc(-c2ccc3c(c2)NC(=O)/C3=C\c2ccc[nH]2)cc1)Nc1ccc(Cl)c(C(F)(F)F)c1	K-562 leukemia	Met
